Test system: Fer (mouse);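 note: 11-residue human phosphosite peptides and single-mutation variants displayed on the E. coli surface, counted by deep sequencing, each peptide's frequency after selection divided by its frequency in the unselected input library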;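 note: frequency after pTyr selection over input frequency; kinase dosed for 20-30% of maximal phosphorylation in three min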
test: phosphorylation enrichment, bacterial display (enrichment ratio); higher = better substrate or ligand; peptides without Tyr show the background
Measured phosphorylation enrichment values are reported for all entries that follow.
Reply with just the number.

Field: example entries. Status: answers known.
Request: Recorded phosphorylation enrichment of AFLGEYIPTVF [RAC2_Y32_P29L] , please.
Response: 0.568

Request: Requested field: phosphorylation enrichment. Item: SSFPDYLAAVD [GLB1_Y154_D151Y_YF]
Response: 0.66

Request: What value of phosphorylation enrichment has been recorded for this entry: TLQSMYGCDVG [HLA-B_Y123]
Response: 0.612

Request: Can you look up the measured phosphorylation enrichment of AELVRYFMEHH [PTPN11_Y80_Q79R_YF] for me?
Response: 0.427

Further cases:
Request: Given the entry IEDNKYTAREG [HCK_Y411_E410K] , report its measured phosphorylation enrichment.
Response: 0.392

Request: Could you share which phosphorylation enrichment value was measured for DFFDLYGGQKF [PTPN11_Y66_E69Q_YF] ?
Response: 0.82

Request: Dear colleague, I am looking for the recorded phosphorylation enrichment of the following sequence: IYRASYVPFAA [RBM47_Y541_G538R]
Response: 0.521

Request: Record request: phosphorylation enrichment value, item KRLDGYVLEGR [IGSF9_Y656]
Response: 0.323
